- system: monoclonal antibody AF-28
- test-protocol: competition ELISA, 32-mer as both coating (25 pmoles/ml, Figure 6b) and standard antigen
property: pIC50
Schema: pIC50 number; meaning minus log10 of the concentration expressed in molar units.

// fetch pIC50 given entry FFGVGGEEDITVQTVTWPDMELPLPRNITEGE [… (FFGVG...EGE 32-mer) synthetic peptide]
7.80
